Source of measurements: PubChem BioAssay (NCI)

Tested on: OVCAR-5 ovarian
ASSAY_OVERVIEW: NCI tumour cell line growth inhibition, 48 h
PROPERTY: TGI

// solved cases for TGI follow
C/C=C(C)/C=C/CC(C)CCC=C(C)C (stereo not given)    > 100 µM
CC1=NN(c2ccccc2)C(=O)C1N=Nc1ccc([As](=O)(O)O)c(O)c1 (stereo not given)    > 100 µM
COc1ccc2nc(-c3cc(-c4cc(OC)c(OC)c(OC)c4)n[nH]3)[nH]c2c1    12.6 µM
COc1ccc2cc(C(C)C(O)c3cc(F)c(F)c(F)c3F)ccc2c1 (stereo not given)    > 100 µM

Req: Endpoint output: TGI of O=S(=O)(/C=C/c1ccc(Cl)cc1Cl)Cc1ccccc1CS(=O)(=O)/C=C/c1ccc(Cl)cc1Cl . Value?
Resp: > 100 µM

---

Tested on: CAKI-1 renal
ASSAY_OVERVIEW: NCI tumour cell line growth inhibition, 48 h
PROPERTY: TGI

// solved cases for TGI follow
COc1ccc2c(c1)c(-c1ccc(-c3cn(S(=O)(=O)c4ccccc4)c4ccc(OC)cc34)s1)cn2S(=O)(=O)c1ccccc1    > 100 µM
CC(C)=CC1C(COC(=O)c2cc3c(cc2Cl)OCO3)C1(C)C (stereo unspecified)    69.7 µM
Nc1ccccc1CCCC(=O)O    > 100 µM
COc1ccc(CCN2C(=O)C=CC2=O)cc1OC    27.4 µM
O=c1cccccc1NCCOCCNc1cccccc1=O    > 100 µM

Req: Endpoint output: TGI of Cc1ccc(S(=O)(=O)N2CC3OC(C)(C)OC3C2CO)cc1 (stereo unspecified) . Value?
Resp: > 100 µM

Req: Also O=[N+]([O-])c1ccc(Br)c([N+](=O)[O-])c1 ?
Resp: 0.954 µM

Req: Also O=C(O)CCCCCCC[C@@H]1S[C@H]1CCCCCCO ?
Resp: > 100 µM

Req: Also CC(C)/C(Cl)=N\OC(=O)Nc1cccc(F)c1 ?
Resp: 32.5 µM

Req: Also CC(=O)OC1CCN(C(=O)c2ccccc2)CC1CC1(c2cc3ccccc3[nH]2)OCCO1 (stereo unspecified) ?
Resp: > 100 µM

Req: Also COC(=O)/C=C/c1ccc2c(c1)CCC2 ?
Resp: > 100 µM

---

Tested on: NCI-H23 lung
ASSAY_OVERVIEW: NCI tumour cell line growth inhibition, 48 h
compounds and their reported TGI
Respond with the bare value in µM.

// solved cases for TGI follow
C/C=C/c1c(O)c(=O)c2c(OC)cc(OC)c3c4c(OC)cc(OC)c5c(=O)c(O)c(/C=C/C)c(c1c23)c54    23.9
CN(C)CCNC(=O)c1cc2ccccc2c2nc3ccccc3nc12    2.69
O=C(CN1CCN(c2ncnc3ccccc23)CC1)Nc1ccc(Cl)cc1C(=O)c1ccccc1Cl    3.87
COc1ccc(N(CC(=O)NCCC[Te]c2ccccc2)C(=O)c2ccccc2)cc1    9.36
COc1cc2c(cc1OCCCOc1cc(-c3ccc(F)cc3)nc(C)n1)N=C[C@@H]1CCCN1C2=O    29.4
COc1cc(C2c3cc4c(cc3OC(NC3CCCCC3)C2C)OCO4)cc(OC)c1OC (stereo unspecified)    11

Req: Endpoint output: TGI of CCN(CC)CC(=O)Nc1c(C(N)=O)nnn1Cc1cc(Cl)c(C(=O)c2ccc(Cl)cc2)c(Cl)c1 . Value?
Resp: 37.4
